TARGET DESC: full-length beta-catenin (Axin site) (Homo sapiens)
Construct: 15 nM full-length beta-catenin, 20 nM FITC labeled peptide in buffer
Sequence (P35222 1-781): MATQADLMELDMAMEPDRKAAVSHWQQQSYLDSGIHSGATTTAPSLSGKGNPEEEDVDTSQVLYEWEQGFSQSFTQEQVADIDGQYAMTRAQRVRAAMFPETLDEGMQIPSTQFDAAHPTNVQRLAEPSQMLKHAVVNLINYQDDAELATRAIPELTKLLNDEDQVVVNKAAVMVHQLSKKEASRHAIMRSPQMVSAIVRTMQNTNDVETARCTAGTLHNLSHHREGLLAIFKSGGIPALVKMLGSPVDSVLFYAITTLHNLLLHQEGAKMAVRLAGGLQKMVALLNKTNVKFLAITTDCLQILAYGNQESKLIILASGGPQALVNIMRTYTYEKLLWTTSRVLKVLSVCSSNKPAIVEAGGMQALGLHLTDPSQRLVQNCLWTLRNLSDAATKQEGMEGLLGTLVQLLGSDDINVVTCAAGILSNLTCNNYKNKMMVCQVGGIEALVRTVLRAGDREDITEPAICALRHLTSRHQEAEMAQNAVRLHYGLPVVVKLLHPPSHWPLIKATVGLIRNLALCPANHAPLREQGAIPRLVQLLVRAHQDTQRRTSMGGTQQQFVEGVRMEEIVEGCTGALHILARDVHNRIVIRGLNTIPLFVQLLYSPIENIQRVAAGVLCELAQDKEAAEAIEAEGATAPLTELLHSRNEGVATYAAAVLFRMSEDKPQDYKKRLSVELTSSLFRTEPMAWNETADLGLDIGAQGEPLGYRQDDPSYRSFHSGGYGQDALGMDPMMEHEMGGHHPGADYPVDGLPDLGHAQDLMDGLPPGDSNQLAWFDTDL
TEST SUMMARY: Competition fluorescence polarization assay (Axin site probe)
Type: binding
MEASUREMENT PARAMETERS: competition fluorescence polarization, Table 2; read-out: in vitro FP EC50
QUANTITY NAME: EC50

q: Supply measured EC50 of CC[C@H](C)[C@@H]1NC(=O)[C@](C)(NC(=O)[C@H](CCC(N)=O)NC(=O)[C@@H]2CCCN2C(C)=O)CCN(C)C(=O)OCC=CCCC[C@](C)(C(=O)N[C@@H](Cc2c[nH]cn2)C(=O)N[C@H](C(=O)N[C@@H](CCCNC(=N)N)C(=O)N[C@@H](CCCNC(=N)N)C(=O)N[C@H](C(=O)N[C@@H](Cc2c[nH]c3ccccc23)C(=O)N[C@@H](CCCNC(=N)N)C(N)=O)C(C)C)C(C)C)NC(=O)[C@H](CC(=O)O)NC(=O)[C@H](CC(C)C)NC1=O (single isomer, unassigned) [FP0782c, Ac-P-Q-MG-I-L-D-R5-H-V-R-R-V-W-R-NH2] in your reply.
a: 100 to 500 nM

q: Item CC[C@H](C)[C@@H]1NC(=O)[C@H](Cc2ccccn2)NC(=O)[C@H](C)NC(=O)[C@H](CC(=O)O)NC(=O)[C@H](CC(C)C)NC(=O)[C@H]([C@@H](C)CC)NC(=O)[C@](C)(NC(=O)[C@H](C)NC(C)=O)CCCCCCC=CCOC(=O)N2CC[C@@](C(=O)N[C@@H](Cc3ccccc3)C(=O)N[C@H](C(=O)N[C@@H](Cc3c[nH]c4ccccc34)C(N)=O)C(C)C)(C2)NC1=O (single isomer, unassigned) [FP0555c Isomer 2, Ac-A-R8-I-L-D-A-2pyr-I-MB-F-V-W-NH2] : provide EC50
a: > 5000 nM

q: # return recorded EC50 for entry CC[C@H](C)[C@@H]1NC(=O)[C@H](Cc2c[nH]cn2)NC(=O)[C@H](C)NC(=O)[C@H](CC(=O)O)NC(=O)[C@](C)(CC(C)C)NC(=O)[C@H]([C@@H](C)CC)NC(=O)[C@](C)(NC(=O)[C@H](C)NC(C)=O)CCCCCCC=CCOC(=O)N2CC[C@@](C(=O)N[C@@H](CCCNC(=N)N)C(=O)N[C@H](C(=O)N[C@@H](Cc3c[nH]c4ccccc34)C(N)=O)C(C)C)(C2)NC1=O [FP0644c, Ac-A-R8-I-aMeL-D-A-H-I-MB-R-V-W-NH2]
a: 100 to 500 nM

q: Let me know recorded EC50 for CC[C@H](C)[C@@H]1NC(=O)[C@H](Cc2ccccn2)NC(=O)[C@H](C)NC(=O)[C@H](CC(=O)O)NC(=O)[C@H](CC(C)C)NC(=O)[C@H]([C@@H](C)CC)NC(=O)[C@](C)(NC(=O)[C@H](C)NC(C)=O)CCCCCCC=CCOC(=O)N2CC[C@@](C(=O)N[C@@H](Cc3ccc(C)cc3)C(=O)N[C@H](C(=O)N[C@@H](Cc3c[nH]c4ccccc34)C(N)=O)C(C)C)(C2)NC1=O (single isomer, unassigned) [FP0578c Isomer 1, Ac-A-R8-I-L-D-A-2pyr-I-MB-4MeF-V-W-NH2] , thanks.
a: > 5000 nM

q: Indicate the recorded EC50 value for this compound: CC[C@H](C)[C@@H]1NC(=O)[C@H](Cc2ccccn2)NC(=O)[C@H](C)NC(=O)[C@H](CC(=O)O)NC(=O)[C@H](CC(C)C)NC(=O)[C@H]([C@@H](C)CC)NC(=O)[C@](C)(NC(=O)[C@H](C)NC(C)=O)CCCCCCC=CCOC(=O)N2CC[C@@](C(=O)N[C@H](C(=O)N[C@H](C(=O)N[C@@H](Cc3c[nH]c4ccccc34)C(N)=O)C(C)C)[C@@H](C)O)(C2)NC1=O (single isomer, unassigned) [FP0561c Isomer 1, Ac-A-R8-I-L-D-A-2pyr-I-MB-T-V-W-NH2]
a: > 5000 nM

q: State, in one line, measured EC50 of CC[C@H](C)[C@@H]1NC(=O)[C@](C)(NC(=O)[C@H](C)NC(C)=O)CCCCCCC=CCOC(=O)N2CC[C@@](C(=O)N[C@@H](CCCNC(=N)N)C(=O)N[C@H](C(=O)N[C@@H](Cc3c[nH]c4ccccc34)C(N)=O)C(C)C)(C2)NC(=O)[C@H](C)NC(=O)[C@H](Cc2c[nH]cn2)NC(=O)[C@H](C)NC(=O)[C@H](CC(=O)O)NC(=O)[C@H](CC(C)C)NC1=O [FP0409c, Ac-A-R8-I-L-D-A-H-A-MB-R-V-W-NH2]
a: > 5000 nM

q: # return recorded EC50 for input CC[C@H](C)[C@@H]1NC(=O)[C@H](Cc2c[nH]cn2)NC(=O)[C@H](C)NC(=O)[C@H](CC(N)=O)NC(=O)[C@H](CC(C)C)NC(=O)[C@H]([C@@H](C)CC)NC(=O)[C@](C)(NC(=O)[C@H](C)NC(C)=O)CCCCCCC=CCOC(=O)N2CC[C@@](C(=O)N[C@@H](CCCNC(=N)N)C(=O)N[C@H](C(=O)N[C@@H](Cc3c[nH]c4ccccc34)C(N)=O)C(C)C)(C2)NC1=O [FP0218c, Ac-A-R8-I-L-N-A-H-I-MB-R-V-W-NH2]
a: 100 to 500 nM

q: Return value of EC50 for input CC[C@H](C)[C@@H]1NC(=O)[C@@](C)(NC(=O)[C@H](CCC(N)=O)NC(=O)[C@@H]2CCCN2C(C)=O)CCCCC=CCOC(=O)N2CC(C(=O)N[C@@H](Cc3c[nH]cn3)C(=O)N[C@H](C(=O)N[C@@H](CCCNC(=N)N)C(=O)N[C@@H](CCCNC(=N)N)C(=O)N[C@H](C(=O)N[C@@H](Cc3c[nH]c4ccccc34)C(=O)N[C@@H](CCCNC(=N)N)C(N)=O)C(C)C)C(C)C)(C2)NC(=O)[C@H](CC(=O)O)NC(=O)[C@H](CC(C)C)NC1=O (single isomer, unassigned) [FP0736c, Ac-P-Q-S6-I-L-D-MA-H-V-R-R-V-W-R-NH2] , no commentary.
a: 500 to 5000 nM

q: Specify EC50 for CC[C@H](C)[C@@H]1NC(=O)[C@H](Cc2c[nH]cn2)NC(=O)[C@H](C)NC(=O)[C@H]([C@@H](C)O)NC(=O)[C@H](CC(C)C)NC(=O)[C@H]([C@@H](C)CC)NC(=O)[C@](C)(NC(=O)[C@H](C)NC(C)=O)CCCCCCC=CCOC(=O)N2CC[C@@](C(=O)N[C@@H](CCCNC(=N)N)C(=O)N[C@H](C(=O)N[C@@H](Cc3c[nH]c4ccccc34)C(N)=O)C(C)C)(C2)NC1=O [FP0219c, Ac-A-R8-I-L-T-A-H-I-MB-R-V-W-NH2] and stop.
a: 100 to 500 nM
